Target: HLA-A*02:01 (Homo sapiens, UniProt P04439, D140Y/D185E/D98H/E176V/E277Q/G131W/G231S/I119V/I121R/I166T/I218V/L300P/L318F/N151K/N90K/P208A/P217A/Q86G/Q94H/R138H/R169H/T345S)
Experiment: MHC binding assay (UV-ligand exchange, β2m ELISA, peptide exchange yield)
Conditions: MHC class I binding score; binding to HLA-A*02:01 ranged by peptide exchange yield (UV-ligand exchange, β2m ELISA)
property.name: Peptide exchange

Some substances with recorded Peptide exchange:
substance: 389 (LLADVTHLL; listed as Homo sapiens) [compound 389]
Peptide exchange: “++” (≧20% = ++)
--
substance: 594 (IMLKGDNITL; listed as Homo sapiens) [compound 594]
Peptide exchange: “+++” (≧50 = +++)
--
substance: 11 (KIFEMLEGV; listed as Homo sapiens) [compound 11]
Peptide exchange: “+++” (≧50 = +++)
--
substance: 604 (SILDRDDIFV; listed as Homo sapiens) [compound 604]
Peptide exchange: “+++” (≧50 = +++)
--
substance: 96 (YIFTDNPAAV; listed as Homo sapiens) [compound 96]
Peptide exchange: “+++” (≧50 = +++)

Qu. Give a short answer stating reported Peptide exchange for 244 (SLFGGTEITI; listed as Homo sapiens) [compound 244] .
Ans. “+++” (≧50 = +++)

Qu. Identify measured Peptide exchange associated with 439 (YLLQEIYGI; listed as Homo sapiens) [compound 439]
Ans. “+++” (≧50 = +++)

Qu. Kindly indicate its recorded Peptide exchange. Item: 373 (SLLEDKGLAEV; listed as Homo sapiens) [compound 373]
Ans. “++” (≧20% = ++)

Qu. Please give measured Peptide exchange of the following entry: 441 (ALLENPKMEL; listed as Homo sapiens) [compound 441]
Ans. “+++” (≧50 = +++)
